# EXPERIMENTAL_TARGET: Kappa-type opioid receptor (Homo sapiens)
# Sequence (P41145 whole entry): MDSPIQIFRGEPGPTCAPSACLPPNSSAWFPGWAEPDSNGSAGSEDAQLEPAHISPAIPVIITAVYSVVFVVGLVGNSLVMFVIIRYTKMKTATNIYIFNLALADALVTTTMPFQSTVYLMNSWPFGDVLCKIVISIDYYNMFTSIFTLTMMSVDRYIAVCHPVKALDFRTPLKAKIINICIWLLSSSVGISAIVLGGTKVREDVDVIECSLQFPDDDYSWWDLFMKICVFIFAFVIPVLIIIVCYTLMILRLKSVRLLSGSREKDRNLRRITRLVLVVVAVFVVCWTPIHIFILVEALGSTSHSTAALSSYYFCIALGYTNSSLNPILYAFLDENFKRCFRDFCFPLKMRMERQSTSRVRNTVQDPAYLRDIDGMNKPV
Where a SMILES comes first, the peptide text is derived from it.
READOUT_KIND: Ki (µM)
Report as a plain number; the unit µM is understood.

N=C(N)NCCC[C@@H](NC(=O)[C@@H](CCCNC(=N)N)NC(=O)[C@@H]1CCCN1C(=O)c1ccccc1)C(=O)N[C@@H](CCC(N)=O)C(=O)N[C@H](CN[C@H]1CSSC[C@@H](C(N)=O)NC1=O)CC1CCCCC1 ... 0.135

Input line: Record CC[C@H](C)[C@H](NC(=O)[C@H](CCC(N)=O)NC(=O)[C@H](CCCNC(=N)N)NC(=O)[C@@H](N)CCCNC(=N)N)C(N)=O (H-RRQI-NH2) : what is its Ki with Kappa-type opioid receptor (Homo sapiens)?
Output line: 23
